assay: Cytotoxicity against mouse HL-1 cells assessed as cell viability incubated for 24 hrs by CytoTox-Glo luminescence assay relative to control; format: toxicity, cell-based
EXPERIMENTAL READOUT: IC50 at 24 h (nM)
Numbers only, in nM.

Give the measured IC50 at 24 h of "S=C(N/N=C(\c1ccccc1)c1ccccn1)Nc1ccccc1" .
1430

---

target: Amine oxidase [flavin-containing] B (Homo sapiens, UniProt P27338); assay: Inhibition of human recombinant MAO-B expressed in insect cells incubated for 15 mins by Amplex red and horseradish peroxidase based fluorescence assay
Sequence (P27338 whole entry): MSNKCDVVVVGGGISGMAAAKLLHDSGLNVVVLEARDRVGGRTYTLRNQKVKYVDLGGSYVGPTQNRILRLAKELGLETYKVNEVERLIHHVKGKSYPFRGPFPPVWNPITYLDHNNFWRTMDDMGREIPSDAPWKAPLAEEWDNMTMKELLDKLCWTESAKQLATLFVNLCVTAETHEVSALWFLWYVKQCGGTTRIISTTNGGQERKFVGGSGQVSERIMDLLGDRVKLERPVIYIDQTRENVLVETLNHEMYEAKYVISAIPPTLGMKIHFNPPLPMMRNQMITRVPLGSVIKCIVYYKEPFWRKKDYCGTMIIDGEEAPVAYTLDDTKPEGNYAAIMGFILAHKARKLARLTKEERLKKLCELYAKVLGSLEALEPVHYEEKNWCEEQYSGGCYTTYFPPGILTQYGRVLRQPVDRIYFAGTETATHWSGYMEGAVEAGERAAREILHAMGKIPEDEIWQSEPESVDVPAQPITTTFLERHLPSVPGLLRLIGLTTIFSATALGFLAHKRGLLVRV
EXPERIMENTAL READOUT: pIC50
Answers are plain numbers, as −log10 of the molar value.

Please look up its pIC50: "O=C(Nc1ccc2c(ccn2Cc2cccc(F)c2)c1)c1cnccn1"
6.11

---

system: HCT-116; experiment: Antiproliferative activity against human HCT-116 cells assessed as reduction in cell viability incubated for 72 hrs by MTT assay; assay type: functional, cell-based; conditions: HCT-116, 72 h
EXPERIMENTAL READOUT: IC50 (nM)
Give bare numbers, in nM.

Provide value of IC50 for this record tested with HCT-116: "O=C(Nc1ccc2ccccc2c1)c1c(Cc2ccccc2)n2nc3ccccc3c2c(=O)n1C1CC1"
1300

---

test system: Human coronavirus 229E; assay: Antiviral activity against Human coronavirus 229E cells assessed as inhibition of virus-induced cytopathic effect by crystal violet staining based analysis; type: functional, organism-based
EXPERIMENTAL READOUT: pIC50
Numbers only, as −log10 of the molar value.

Could you tell me which pIC50 is on file for "c1cc(-c2nc3cnccn3c2NC2CCCCC2)ccn1" ?
4.24

---

tested on: SW626; assay: Cytotoxicity against human SW626 cells assessed as reduction in cell growth incubated for 72 hrs by CCK-8 assay; assay type: functional, cell-based; conditions: SW626, 72 h
EXPERIMENTAL READOUT: pIC50
Answers are plain numbers, as −log10 of the molar value.

# pIC50 lookup, item "CC(C)N1C[C@H]2C[C@@H]1CN2c1ccc(Nc2nc(-c3ccc4cn[nH]c4c3)cn3ccnc23)cc1"
5.04

---

I'd appreciate it if you could supply pIC50 values for the items below.
target: Acetylcholinesterase (Homo sapiens)
Sequence (P22303 whole entry): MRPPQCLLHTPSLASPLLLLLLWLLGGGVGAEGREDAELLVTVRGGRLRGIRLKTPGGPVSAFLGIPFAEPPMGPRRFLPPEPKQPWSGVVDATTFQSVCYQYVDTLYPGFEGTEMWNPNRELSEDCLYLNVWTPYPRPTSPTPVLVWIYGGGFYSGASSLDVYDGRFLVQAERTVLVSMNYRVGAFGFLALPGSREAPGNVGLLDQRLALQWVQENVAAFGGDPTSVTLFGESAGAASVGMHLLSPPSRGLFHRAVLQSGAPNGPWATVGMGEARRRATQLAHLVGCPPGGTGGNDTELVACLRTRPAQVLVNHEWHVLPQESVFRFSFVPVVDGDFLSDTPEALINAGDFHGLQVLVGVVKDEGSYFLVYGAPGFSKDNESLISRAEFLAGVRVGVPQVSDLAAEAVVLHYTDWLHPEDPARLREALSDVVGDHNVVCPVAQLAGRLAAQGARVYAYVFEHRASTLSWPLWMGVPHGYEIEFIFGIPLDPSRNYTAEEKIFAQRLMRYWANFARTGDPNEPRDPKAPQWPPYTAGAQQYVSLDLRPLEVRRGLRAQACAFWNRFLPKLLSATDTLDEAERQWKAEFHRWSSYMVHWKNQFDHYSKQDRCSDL
One number for each entry, as −log10 of the molar value.

CHEMICAL STRING: Fc1cccc(-c2cnc3cccnc3n2)c1
pIC50: 6.10
--
CHEMICAL STRING: O=[N+]([O-])c1cccc(-c2cnc3cccnc3n2)c1
pIC50: 6.33

Next compound, please.
Entry under review: "Cc1cccc(-c2cnc3cccnc3n2)c1" . Reported pIC50?
6.05

---

molecular target: Histone deacetylase 3 (Homo sapiens); experiment: Inhibition of human recombinant HDAC3
Sequence (O15379 whole entry): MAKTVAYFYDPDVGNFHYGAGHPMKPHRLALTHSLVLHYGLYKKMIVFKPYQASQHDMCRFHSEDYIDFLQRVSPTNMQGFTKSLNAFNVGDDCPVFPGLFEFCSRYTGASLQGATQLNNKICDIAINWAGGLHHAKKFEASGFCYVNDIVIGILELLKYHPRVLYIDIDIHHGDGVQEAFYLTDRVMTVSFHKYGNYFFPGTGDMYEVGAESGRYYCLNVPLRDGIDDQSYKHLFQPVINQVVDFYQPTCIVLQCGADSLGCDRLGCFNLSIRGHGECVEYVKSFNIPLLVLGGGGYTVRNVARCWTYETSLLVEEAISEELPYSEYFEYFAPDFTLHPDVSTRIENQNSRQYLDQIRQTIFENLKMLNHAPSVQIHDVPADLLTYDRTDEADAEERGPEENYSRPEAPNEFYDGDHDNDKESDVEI
EXPERIMENTAL READOUT: IC50 (nM)
One number for each entry, in nM.

These solved cases illustrate the format of a correct answer.
COMPOUND: COc1cnc(C(=O)NCC2(C)CCCC3(C)c4ccc(C(C)C)cc4CCC23)cn1 (stereo not drawn)
MEASUREMENT: 310
//
COMPOUND: Cn1cc(CCN2CCN(c3cnc(C(=O)Nc4cc(-c5cccs5)ccc4[N+](=O)[O-])cn3)CC2)c2ccccc21
MEASUREMENT: 1000

Okay, next one:
Return IC50 measured with Histone deacetylase 3 (Homo sapiens) given this compound: "CN1CCN(c2cnc(C(=O)Nc3cc(-c4cccs4)ccc3[N+](=O)[O-])cn2)CC1"
6100

---

tested on: SW-620; test: Antiproliferative activity against human SW-620 cells assessed as reduction in cell growth measured after 3 to 4 days by MTT assay; format: functional, cell-based
EXPERIMENTAL READOUT: pIC50
Answers are plain numbers, as −log10 of the molar value.

Look at this compound and give its reported pIC50. "O=C(Nc1ccc(Br)cc1)Nc1ccc(Oc2cnc(C(=O)NC3CCCC3)cn2)cc1"
4.40

---

test system: MCF7; assay: Cytotoxicity against human MCF7 cells assessed as reduction in cell growth measured after 48 hrs by MTT assay; type: functional, cell-based; conditions: MCF7, 48 h
EXPERIMENTAL READOUT: pIC50
Numbers only, as −log10 of the molar value.

Reported pIC50 for "C/C(=N\NC(=S)N1CCCCC1)c1cnccn1" : what is it?
5.42

---

biological target: Mitogen-activated protein kinase 3 (Homo sapiens); experiment: Inhibition of ERK1 (unknown origin)
Sequence (P27361 whole entry): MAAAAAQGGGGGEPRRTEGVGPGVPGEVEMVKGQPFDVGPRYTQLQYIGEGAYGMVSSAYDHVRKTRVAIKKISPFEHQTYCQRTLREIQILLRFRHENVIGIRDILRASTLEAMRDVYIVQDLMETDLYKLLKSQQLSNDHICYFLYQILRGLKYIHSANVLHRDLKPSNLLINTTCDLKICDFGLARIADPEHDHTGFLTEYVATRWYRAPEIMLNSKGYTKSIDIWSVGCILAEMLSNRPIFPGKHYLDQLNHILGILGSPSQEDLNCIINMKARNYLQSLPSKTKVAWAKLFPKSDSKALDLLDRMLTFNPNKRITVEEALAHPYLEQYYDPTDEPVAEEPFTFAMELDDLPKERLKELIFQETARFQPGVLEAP
EXPERIMENTAL READOUT: pIC50
Numbers only, as −log10 of the molar value.

Which pIC50 is reported for this molecule? "CN1CCN([C@H]2C[C@@H](c3nc(-c4ccc5ccc(-c6ccccc6)nc5c4)c4c(N)nccn43)C2)CC1"
6.68

---

system: SW-620; test: Antiproliferative activity against human SW620 cells assessed as reduction in cell viability incubated for 72 hrs by MTT assay; assay type: functional, cell-based; settings: SW-620, 72 h
EXPERIMENTAL READOUT: pIC50
One number for each entry, as −log10 of the molar value.

What pIC50 value was documented for this molecule, "O=C(Nc1ccc2ccccc2c1)c1c(Cc2ccccc2)n2nc3ccccc3c2c(=O)n1C1CC1" ?
5.74

---

tested on: L1210; test: Antiproliferative activity against mouse L1210 cells assessed as reduction in cell viability measured after 3 to 4 days by MTT assay; type: functional, cell-based
EXPERIMENTAL READOUT: IC50 (µM)
Numbers only, in µM.

Entry "O=C(Nc1ccc(Br)cc1)Nc1ccc(Oc2cnc(C(=O)NC3CCCC3)cn2)cc1" has what IC50?
87

---

assay: Antiproliferative activity against human WI-38 cells assessed as cell growth inhibition measured after 72 hrs by MTT assay; type: toxicity, cell-based
EXPERIMENTAL READOUT: IC50 at 72 h

Given the compound "Clc1ccc(-c2nc3oc4ccccc4c3nc2-c2ccc(Cl)cc2)cc1" , what is its reported IC50 at 72 h?
> 40 µM

---

molecular target: Aldo-keto reductase family 1 member B1 (Homo sapiens); experiment: Inhibition of human recombinant ALDR1
EXPERIMENTAL READOUT: pIC50
One number for each entry, as −log10 of the molar value.

Would you kindly share the measured pIC50 for "O=C(c1ccc(O)cc1)c1ncc(-c2ccc(O)cc2)nc1C(=O)c1ccc(O)cc1" ?
5.19

---

test: Antiproliferative activity against human WI-38 cells assessed as reduction in cell growth measured after 3 to 4 days by MTT assay; type: toxicity, cell-based
EXPERIMENTAL READOUT: IC50

Which measured IC50 value corresponds to "O=C(Nc1ccc(Br)cc1)Nc1ccc(Oc2cnc(C(=O)NC3CCCC3)cn2)cc1" ?
> 100 µM

---

experiment: Antiproliferative activity against mouse Ba/F3 EML4-ALK cells assessed as inhibition of cell growth; type: functional, cell-based
EXPERIMENTAL READOUT: pIC50
Numbers only, as −log10 of the molar value.

Could you share which pIC50 value was measured for "CCc1nc(C(N)=O)c(Nc2ccc3c(c2)CCN(C2CC=CC2)CC3)nc1NC1CCOCC1" ?
8.92

---

test system: HT-29; assay: Antiproliferative activity against human HT-29 cells assessed as reduction in cell viability incubated for 24 hrs by MTT assay; format: functional, cell-based; conditions: HT-29, 24 h
EXPERIMENTAL READOUT: IC50 (nM)
Give bare numbers, in nM.

MOLECULE: CN(CCCN(C)CCN1C(=O)c2cccc3c2c(cc2nccnc23)C1=O)CCN1C(=O)c2cccc3c2c(cc2nccnc23)C1=O
MEASUREMENT UNITS: nM
IC50: 20
//
MOLECULE: C[C@H]1[C@H](C)CC[C@]2(C)CC[C@]3(C)C(=CC(=O)[C@@H]4[C@@]5(C)Cc6nccnc6[C@](C)(C(=O)OCc6ccccc6)[C@@H]5CC[C@]43C)[C@H]12
MEASUREMENT UNITS: nM
IC50: 12200
//
MOLECULE: O=C1c2cccc3c2c(cc2nccnc23)C(=O)N1CCNCCCNCCN1C(=O)c2cccc3c2c(cc2nccnc23)C1=O
MEASUREMENT UNITS: nM
IC50: 20
//
MOLECULE: CC1c2nccnc2C[C@]2(C)[C@H]3C(=O)C=C4[C@@H]5[C@@H](C)[C@H](C)CC[C@]5(C)CC[C@@]4(C)[C@]3(C)CC[C@@H]12 (stereo not given in full)
MEASUREMENT UNITS: nM
IC50: 22700

Recall the recorded IC50 for "CN(CCCN(C)CCN1C(=O)c2cccc3c(N)c(N)cc(c23)C1=O)CCN1C(=O)c2cccc3c(N)c(N)cc(c23)C1=O" with HT-29 and state it.
60

---

test: Cytotoxicity against human MRC5 cells assessed as reduction in cell growth measured after 48 hrs by MTT assay; format: toxicity, cell-based
EXPERIMENTAL READOUT: IC50 at 48 h

Which measured IC50 at 48 h value corresponds to "C/C(=N\NC(=S)N1CCCCC1)c1cnccn1" ?
> 60 µM

---

tested on: MCF7; assay: Antiproliferative activity against human MCF7 cells assessed as reduction in cell growth incubated for 48 hrs by MTT assay; type: functional, cell-based; conditions: MCF7, 48 h
EXPERIMENTAL READOUT: IC50 (nM)
One number for each entry, in nM.

Query (compound): "Cc1nc(C)c(C(=O)NCCCCCCCCCCCCNOC(=O)c2ccc3cc[nH]c3c2)nc1C" ; field requested: IC50
1110
